system: Plasmodium falciparum; test: Calibr Malaria Delayed Death Assay SOP; type: functional, organism-based; design: scale not given: in the data most compounds retested in dose-response had high values; settings: concentration 4.99e-06 (unit not given; other assays of the set use mol/L)
Out of some 38,000 compounds screened, about 1,200 (3.2%) showed an effect of 50% or more. The median lay at about -58%. Shown is part of a subset that was picked to be rich in strong results.
quantity-measured: Percent Effect

For the molecule shown here, "O=C(Cc1noc(C(=O)NCC2CC2)n1)Nc1cccc(C(F)(F)F)c1" , give the reported Percent Effect. 7.243%

For the molecule shown here, "COCCN(Cc1cccs1)c1nc(CCN)nc2ccccc12" , give the reported Percent Effect. 61.62%

For the molecule shown here, "Cc1nc2ccnn2c(C)c1CCC(=O)N1CCSCC1" , give the reported Percent Effect. -118.8%

For the molecule shown here, c1cc(CNCC2CNc3ccnn3C2)cc(N2CCOCC2)n1 (configuration not stated) , give the reported Percent Effect. -156.8%

For the molecule shown here, "COCCN(Cc1cc(O)nc2ccccc12)C(=O)NC(C)C" , give the reported Percent Effect. -37.53%

For the molecule shown here, "NCCc1nc(N(Cc2nccs2)C2CC2)c2ccccc2n1" , give the reported Percent Effect. -61.5%

For the molecule shown here, COCCN(Cc1cccs1)C(=O)C1CCCN(C(N)=O)C1 (configuration not stated) , give the reported Percent Effect. -166.3%

For the molecule shown here, "CC(=O)c1ccc(NC(=O)N[C@H](C(=O)O)C(C)C)cc1" , give the reported Percent Effect. -95.29%

For the molecule shown here, "Cc1nn(CC(C)C)c(N(C)C)c1CNCc1ccc(CO)c(F)c1" , give the reported Percent Effect. -6.96%

For the molecule shown here, "NC(=O)N1C[C@H](NC(=O)c2cscn2)[C@@H]2OCCC[C@@H]21" , give the reported Percent Effect. -29.66%

For the molecule shown here, "NCCc1nc(N(Cc2cncs2)C2CC2)c2ccccc2n1" , give the reported Percent Effect. -36.69%

For the molecule shown here, "COCCN(CCOC)Cc1c(C)nc2ccccc2c1O" , give the reported Percent Effect. -60.42%

Values compiled from ChEMBL document CHEMBL3988442.
